The origin of these recorded values is patent US20260263521A1.

systemName: T1, human CD200R1 expressed on cells (Jurkat-CD200R1, U937-CD200R1, HH cells) (human, UniProt Q8TD46 25-348)
T1 construct: whole, on cells; also called HH (CRL-2105); cell surface-expressed CD200R1
T1 sequence (looked up): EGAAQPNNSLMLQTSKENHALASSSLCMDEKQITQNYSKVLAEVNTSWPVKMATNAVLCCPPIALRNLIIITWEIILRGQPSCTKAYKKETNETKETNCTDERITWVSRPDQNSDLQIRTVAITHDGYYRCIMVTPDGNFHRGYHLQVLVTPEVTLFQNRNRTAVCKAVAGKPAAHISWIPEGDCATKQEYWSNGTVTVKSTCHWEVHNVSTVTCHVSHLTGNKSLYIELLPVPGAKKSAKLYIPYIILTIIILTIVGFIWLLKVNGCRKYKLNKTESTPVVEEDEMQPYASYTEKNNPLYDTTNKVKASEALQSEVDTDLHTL
methodSummary: flow cytometry, HH cells; drawn table
Listing of recorded Geo mean (%) at 12.5 nM by entry.
Write the answer as a number in %, unit excluded.

// field: Geo mean (%) at 12.5 nM; key: P001018 scFv mutant L3-R92S (scFv) scFv: QVQLVQSGAEVKKPGASVKVSCKASGYTFTSYVMHWVRQAPGQGLEWMGYINPYNDDTNYNEKFKGRVTMTRDTSTSTVYMELSSLRSEDTAVYYCAREDYYGSRWGYWGQGTLVTVSSGGGGSGGGGSGGGGSDIVLTQSPASLAVSPGQRATITCRASKSVSTSGYSYMHWYQQKPGQPPKLLIYLASNLESGVPARFSGSGSGTDFTLTINPVEANDTANYYCQHSSELLTFGQGTKVEIK ; value = 73.2

// recorded Geo mean (%) at 12.5 nM for P001018 scFv mutant H3-Y102T (scFv) scFv: QVQLVQSGAEVKKPGASVKVSCKASGYTFTSYVMHWVRQAPGQGLEWMGYINPYNDDTNYNEKFKGRVTMTRDTSTSTVYMELSSLRSEDTAVYYCAREDYYGSRWGTWGQGTLVTVSSGGGGSGGGGSGGGGSDIVLTQSPASLAVSPGQRATITCRASKSVSTSGYSYMHWYQQKPGQPPKLLIYLASNLESGVPARFSGSGSGTDFTLTINPVEANDTANYYCQHSRELLTFGQGTKVEIK : 69.7

Lookup result for P001018 scFv mutant L3-L94S (scFv) scFv: QVQLVQSGAEVKKPGASVKVSCKASGYTFTSYVMHWVRQAPGQGLEWMGYINPYNDDTNYNEKFKGRVTMTRDTSTSTVYMELSSLRSEDTAVYYCAREDYYGSRWGYWGQGTLVTVSSGGGGSGGGGSGGGGSDIVLTQSPASLAVSPGQRATITCRASKSVSTSGYSYMHWYQQKPGQPPKLLIYLASNLESGVPARFSGSGSGTDFTLTINPVEANDTANYYCQHSRESLTFGQGTKVEIK ; measured Geo mean (%) at 12.5 nM: 62
